Data origin, for the record: the supplement of paper PMC10567573

B1: C8orf76 (parent)
chain: LYLQLAICSSLQNLEKTIFCLQKL

Variants of: B1
ASSAY_PROTOCOL: protein stability index of a GFP-peptide fusion (GPS, HEK-293T) (PSI 1-6); higher = more stable;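 note: lentivirally expressed fusions sorted by FACS into six bins by GFP to DsRed ratio, PSI derived from sequencing read proportions per bin multiplied by bin number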
RUN_CONDITIONS: c terminus: a fixed tail appended
For each entry below, report its protein stability index value.

Answered examples (5):
LYLQLAICASLQNLEKTIFCLQKL [S9A] = 3.6
LYLQLAICSTLQNLEKTIFCLQKL [S10T] = 2.38
LYLQLAICSSLQYLEKTIFCLQKL [N13Y] = 2.21
LYLQLAICSSLQNLEKTPFCLQKL [I18P] = 4.2
LYLQLAICSSLQNLMKTIFCLQKL [E15M] = 3.11

Provide each entry's protein stability index from the list below.
1. LYLQLAICSSLQNLEKTIICLQKL [F19I]
2. LYLQLAICSSLQNLCKTIFCLQKL [E15C]
3. EYLQLAICSSLQNLEKTIFCLQKL [L1E]
4. LYLQLAICSSLTNLEKTIFCLQKL [Q12T]
5. LYLQLAICSSLQNLEKTIFHLQKL [C20H]
6. LYLQLTICSSLQNLEKTIFCLQKL [A6T]
7. LYLQLAIFSSLQNLEKTIFCLQKL [C8F]

Completion:
1: 2.8; 2: 2.82; 3: 3.38; 4: 4.52; 5: 3.83; 6: 3.04; 7: 1.94

Provide each entry's protein stability index from the list below.
1. LYLQLAIISSLQNLEKTIFCLQKL [C8I]
2. LYLQLAICSSLQNLEKTIFCLQQL [K23Q]
3. LYLSLAICSSLQNLEKTIFCLQKL [Q4S]
4. LYLQLAICSSLQNLEKTIFCLKKL [Q22K]

Completion:
[1.69, 4.24, 4.32, 3.39]
